target: MST2 (Homo sapiens (Human)); experiment: MST2 biochemical LanthaScreen Eu Kinase Binding Assay
Sequence (Q13188 whole entry): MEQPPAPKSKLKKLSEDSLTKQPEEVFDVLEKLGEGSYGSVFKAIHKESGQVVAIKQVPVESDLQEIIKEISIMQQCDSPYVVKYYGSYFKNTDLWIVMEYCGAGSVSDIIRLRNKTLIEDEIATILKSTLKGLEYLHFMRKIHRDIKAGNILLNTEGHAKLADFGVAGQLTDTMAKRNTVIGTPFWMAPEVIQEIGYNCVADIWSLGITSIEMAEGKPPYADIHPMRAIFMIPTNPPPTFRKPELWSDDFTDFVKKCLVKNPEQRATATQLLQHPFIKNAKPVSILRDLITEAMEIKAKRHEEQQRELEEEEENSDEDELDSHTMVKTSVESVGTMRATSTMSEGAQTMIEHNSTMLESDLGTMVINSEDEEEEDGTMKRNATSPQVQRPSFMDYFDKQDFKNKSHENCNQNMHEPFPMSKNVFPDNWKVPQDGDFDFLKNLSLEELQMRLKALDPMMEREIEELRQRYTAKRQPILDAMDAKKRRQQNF
Would you kindly list IC50 for each of these compounds?

Form field: IC50 recorded for CCOc1cc2ncc(C#N)c(Nc3ccc(OCc4ccccn4)c(Cl)c3)c2cc1NC with MST2 (Homo sapiens (Human)) (enter value)
1 to 10 µM

Hello, I am looking for reported IC50 with MST2 (Homo sapiens (Human)) for CCOc1cc2ncc(C=O)c(Nc3ccc(OCc4ncccc4C)cc3Cl)c2cc1NC(=O)CCCN(C)C . Could you help?
1 to 10 µM

// fetch MST2 (Homo sapiens (Human)) IC50 for CCOc1cc2ncc(C#N)c(Nc3ccc(OCc4ncccc4C)cc3C#N)c2cc1NC(=O)CCCN(C)C
0.1 to 1 µM

Find the measured IC50: item CCOc1cc2ncc(C#N)c(Nc3ccc(OCc4ncccc4C4CC4)c(Cl)c3)c2cc1NC(=O)CCCN(C)C , target or system MST2 (Homo sapiens (Human)).
0.1 to 1 µM

Form field: IC50 recorded for CCOc1cc2ncc(C#N)c(Nc3ccc(OCc4ccccn4)c(Cl)c3)c2cc1NC(C)=O with MST2 (Homo sapiens (Human)) (enter value)
1 to 10 µM

What reported IC50 corresponds to CCOc1cc2ncc(C#N)c(Nc3ccc(OCc4cccc(C#N)n4)c(Cl)c3)c2cc1NC(=O)CCCN(C)C on MST2 (Homo sapiens (Human))?
0.1 to 1 µM

Notebook: pull reported IC50 for MST2 (Homo sapiens (Human)), entry CCOc1cc2ncc(C#N)c(Nc3ccc(OCc4ncccc4OC)c(Cl)c3)c2cc1NC(=O)CCCN(C)C
0.1 to 1 µM

Please tell me: IC50 of CCOc1cc2ncc(C#N)c(Nc3ccc(OCc4ccc(Cl)cn4)c(Cl)c3)c2cc1NC(=O)CCCN(C)C , system MST2 (Homo sapiens (Human))?
0.1 to 1 µM

IC50 of CCOc1cc2ncc(C#N)c(Nc3ccc(OCc4ncccc4C)cc3C(F)(F)F)c2cc1NC(=O)CCCN(C)C on MST2 (Homo sapiens (Human))?
0.1 to 1 µM

Short answer please: IC50, MST2 (Homo sapiens (Human)), entry CCOc1cc2ncc(C#N)c(Nc3ccc(OCc4cc(C5CC5)on4)c(Cl)c3)c2cc1NC(=O)CCCN(C)C
0.1 to 1 µM

Identify the measured IC50 of Cc1cccnc1COc1ccc(Nc2c(C#N)cnc3ccc(NC(=O)CCCN(C)C)cc23)c(Cl)c1 for MST2 (Homo sapiens (Human)).
0.1 to 1 µM

Recall the recorded IC50 for CCOc1cc2ncc(C#N)c(Nc3ccc(OCc4ncccc4C(=O)OC)cc3Cl)c2cc1NC(=O)CCCN(C)C with MST2 (Homo sapiens (Human)) and state it.
0.1 to 1 µM

Please tell me: IC50 of CCOc1cc2ncc(C#N)c(Nc3ccc(OCc4cccc(OC)n4)c(Cl)c3)c2cc1NC(=O)CCCN(C)C , system MST2 (Homo sapiens (Human))?
0.1 to 1 µM

Observed IC50 on MST2 (Homo sapiens (Human)) for CCOc1cc2ncc(C#N)c(Nc3ccc(OCc4ccccn4)c(Cl)c3)c2cc1NC(=O)CCCN(C)C , please.
0.1 to 1 µM

For MST2 (Homo sapiens (Human)), provide IC50 of CCOc1cc2ncc(C#N)c(Nc3ccc(O)cc3C)c2cc1NC(=O)CCCN(C)C please.
1 to 10 µM

###

Biological target: MST1 (Homo sapiens (Human))
Assay: MST1 biochemical LanthaScreen Eu Kinase Binding Assay
Conditions: read-out: Kinase Binding assay-MST1 IC50
Protocol: MST1 and MST2 biochemical LanthaScreen Eu Kinase Binding Assay was based on the binding and displacement of kinase tracer to the kinase of interest. Compounds in 1000×DMSO stock solution was dispensed using automated dispensing system (Labcyte) to 384 well Corning Microplate at 15 nL, 5 uL of Kinase buffer A was added to each well. Plates were shaken and incubated for 1 min to ensure well dissolution of compounds.
Would you kindly list IC50 for each of these compounds?

Recall the recorded IC50 for CCOc1cc2ncc(C#N)c(Nc3cccc(Cl)c3)c2cc1NC(=O)CCCN(C)C with MST1 (Homo sapiens (Human)) and state it.
1000 to 10000 nM

Tell me reported IC50 for CCOc1cc2ncc(C#N)c(Nc3ccc(OCc4ncccc4OC)c(Cl)c3)c2cc1NC(=O)CCCN(C)C , tested with MST1 (Homo sapiens (Human)).
< 100 nM

Look up IC50 with MST1 (Homo sapiens (Human)) for this compound: CCOc1cc2ncc(C#N)c(Nc3ccc(NC(C)c4ccccn4)c(Cl)c3)c2cc1NC(=O)CCCN(C)C (stereo not shown)
1000 to 10000 nM

Form: Entry = CCOc1cc2ncc(C#N)c(Nc3ccc(OCc4ccccn4)c(F)c3)c2cc1NC(=O)CCCN(C)C | System = MST1 (Homo sapiens (Human)) | IC50 = ____
100 to 1000 nM

###

Answer each item with its documented pIC50.
molecular target: MST1 (Homo sapiens (Human), UniProt Q13043); test: MST1 biochemical LanthaScreen Eu Kinase Binding Assay; conditions: read-out: Kinase Binding assay-MST1 IC50
Sequence (Q13043 whole entry): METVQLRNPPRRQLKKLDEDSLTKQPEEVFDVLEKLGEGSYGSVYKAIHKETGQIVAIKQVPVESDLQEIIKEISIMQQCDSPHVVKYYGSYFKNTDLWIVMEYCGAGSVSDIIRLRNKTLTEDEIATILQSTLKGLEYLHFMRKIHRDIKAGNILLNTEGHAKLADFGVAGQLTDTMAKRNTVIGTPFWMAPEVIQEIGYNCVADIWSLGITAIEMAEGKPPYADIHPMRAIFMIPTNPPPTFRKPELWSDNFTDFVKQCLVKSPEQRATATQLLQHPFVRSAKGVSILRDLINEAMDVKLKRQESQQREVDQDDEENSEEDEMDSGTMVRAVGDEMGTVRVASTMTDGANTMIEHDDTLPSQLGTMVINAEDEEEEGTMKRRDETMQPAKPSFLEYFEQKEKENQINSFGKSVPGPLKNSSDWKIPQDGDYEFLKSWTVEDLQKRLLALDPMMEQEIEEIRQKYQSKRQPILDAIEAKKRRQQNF
pIC50: −log10 of the molar value.

Using the record for CCOc1cc2ncc(C#N)c(Nc3ccc(O)cc3C)c2cc1NC(=O)CCCN(C)C , report its pIC50.
6.00 to 7.00

Given CCOc1cc2ncc(C#N)c(Nc3ccc(NC(=O)c4ccccc4)c(Cl)c3)c2cc1NC(=O)CCCN(C)C , state its recorded pIC50.
6.00 to 7.00

Value lookup for pIC50; key = CCOc1cc2ncc(C#N)c(Nc3ccc(OCCc4c(C)noc4C)c(Cl)c3)c2cc1NC(=O)CCCN(C)C
6.00 to 7.00

Which pIC50 value is on record for CCOc1cc2ncc(C#N)c(Nc3ccc(OCc4ccccn4)c(Cl)c3)c2cc1NC(=O)CCCN1CCCCC1 ?
> 7.00

Which pIC50 reading was recorded for the compound CCOc1cc2ncc(C#N)c(Nc3ccc(OCc4cocn4)c(Cl)c3)c2cc1NC(=O)CCCN(C)C ?
6.00 to 7.00

What value of pIC50 has been recorded for this entry: CCOc1cc2ncc(C#N)c(Nc3ccc(OCc4cc(OC)ccn4)c(Cl)c3)c2cc1NC(=O)CCCN(C)C
> 7.00

Requested field: pIC50. Item: CCOc1cc2ncc(C#N)c(Nc3ccc(OCc4ncccc4F)c(Cl)c3)c2cc1NC(=O)CCCN(C)C
> 7.00

Suppose we examine the compound CCOc1cc2ncc(C#N)c(Nc3ccc(OCc4nc(C(C)C)no4)c(Cl)c3)c2cc1NC(=O)CCCN(C)C ; what pIC50 value has been reported?
6.00 to 7.00

Tell me the measured pIC50 of CCOc1cc2ncc(C#N)c(Nc3ccc(OCc4cccc(F)n4)c(Cl)c3)c2cc1NC(=O)CCCN(C)C , please.
> 7.00

Which pIC50 value belongs to CCOc1cc2ncc(C#N)c(Nc3ccc(OC)c(Cl)c3)c2cc1NC(C)=O ?
6.00 to 7.00

Requested field: pIC50. Item: CCOc1cc2ncc(C#N)c(Nc3cc(C)c(OCc4ncccc4C)cc3C)c2cc1NC(=O)CCCN(C)C
> 7.00

Recorded pIC50 for CCOc1cc2ncc(C#N)c(Nc3ccc(OCc4cc(-c5ccc(C)cc5)on4)c(Cl)c3)c2cc1NC(=O)CCCN(C)C , please?
6.00 to 7.00

Report pIC50 for CCOc1cc2ncc(C#N)c(Nc3ccc(OCc4cc(C5CC5)on4)c(Cl)c3)c2cc1NC(=O)CCCN(C)C please.
6.00 to 7.00

Which pIC50 is listed for CCOc1cc2ncc(C#N)c(Nc3ccc(OCc4nccn4CC)c(Cl)c3)c2cc1NC(=O)CCCN(C)C ?
6.00 to 7.00

Fill blank: measured pIC50 of the compound CCOc1cc2ncc(C#N)c(Nc3ccc(OCc4ncccc4C)cc3C#N)c2cc1NC(=O)CCCN(C)C is ____.
> 7.00

###

biological target: MST1 (Homo sapiens (Human)); experiment: MST1 biochemical LanthaScreen Eu Kinase Binding Assay; settings: read-out: Kinase Binding assay-MST1 IC50
pIC50: −log10 of the molar value.
Record form. Attribute: pIC50. Fill in for each entry.

Write down the reported pIC50 of CCOc1cc2ncc(C#N)c(Nc3ccc(OCc4ncccc4C)cc3)c2cc1NC(=O)CCCN(C)C , test system: MST1 (Homo sapiens (Human)).
> 7.00

Value wanted: pIC50 (MST1 (Homo sapiens (Human))) of entry CCOc1cc2ncc(C#N)c(Nc3ccc(OCc4ncccc4C)cc3Cl)c2cc1NC(=O)CCCN(C)C
> 7.00

Form entry - test system: MST1 (Homo sapiens (Human)); read-out: pIC50; compound: CCOc1cc2ncc(C#N)c(Nc3ccc(OCc4cc(C(F)(F)F)ccn4)c(Cl)c3)c2cc1NC(=O)CCCN(C)C
6.00 to 7.00

Request body: readout pIC50, system MST1 (Homo sapiens (Human)), query CCOc1cc2ncc(C#N)c(Nc3cccc(S(C)(=O)=O)c3)c2cc1NC(C)=O . Return the value.
5.00 to 6.00

Give pIC50 (MST1 (Homo sapiens (Human))) of the following compound: CCOc1cc2ncc(C#N)c(Nc3ccc(OCc4ncccc4C(=O)OC)cc3Cl)c2cc1NC(=O)CCCN(C)C
6.00 to 7.00

Kindly state the measured pIC50 obtained for CCOc1cc2ncc(C#N)c(Nc3ccc(OCc4ncccc4C)c(C)c3)c2cc1NC(=O)CCCN(C)C with MST1 (Homo sapiens (Human)).
> 7.00

Form field - read-out: pIC50; system: MST1 (Homo sapiens (Human)); submitted item: CCOc1cc2ncc(C#N)c(Nc3ccc(OCc4ccccn4)c(Cl)c3)c2cc1NC(=O)CCCN(C)C
> 7.00

Data origin: patent US10774068B2
